TARGET_OF_ASSAY: PI3K delta (Homo sapiens, UniProt O00329)
Construct: for the full-length p110-d subunit are generated and fused by overlapping PCR; p85(iSH2) fusion partner (see partner chain) (N); His tag (C); made in house; host or cells: baculovirus; Tn5 (Trichoplusia ni) or TiniPro insect cells
Sequence (O00329 with tags, fused parts or gaps limits assumed): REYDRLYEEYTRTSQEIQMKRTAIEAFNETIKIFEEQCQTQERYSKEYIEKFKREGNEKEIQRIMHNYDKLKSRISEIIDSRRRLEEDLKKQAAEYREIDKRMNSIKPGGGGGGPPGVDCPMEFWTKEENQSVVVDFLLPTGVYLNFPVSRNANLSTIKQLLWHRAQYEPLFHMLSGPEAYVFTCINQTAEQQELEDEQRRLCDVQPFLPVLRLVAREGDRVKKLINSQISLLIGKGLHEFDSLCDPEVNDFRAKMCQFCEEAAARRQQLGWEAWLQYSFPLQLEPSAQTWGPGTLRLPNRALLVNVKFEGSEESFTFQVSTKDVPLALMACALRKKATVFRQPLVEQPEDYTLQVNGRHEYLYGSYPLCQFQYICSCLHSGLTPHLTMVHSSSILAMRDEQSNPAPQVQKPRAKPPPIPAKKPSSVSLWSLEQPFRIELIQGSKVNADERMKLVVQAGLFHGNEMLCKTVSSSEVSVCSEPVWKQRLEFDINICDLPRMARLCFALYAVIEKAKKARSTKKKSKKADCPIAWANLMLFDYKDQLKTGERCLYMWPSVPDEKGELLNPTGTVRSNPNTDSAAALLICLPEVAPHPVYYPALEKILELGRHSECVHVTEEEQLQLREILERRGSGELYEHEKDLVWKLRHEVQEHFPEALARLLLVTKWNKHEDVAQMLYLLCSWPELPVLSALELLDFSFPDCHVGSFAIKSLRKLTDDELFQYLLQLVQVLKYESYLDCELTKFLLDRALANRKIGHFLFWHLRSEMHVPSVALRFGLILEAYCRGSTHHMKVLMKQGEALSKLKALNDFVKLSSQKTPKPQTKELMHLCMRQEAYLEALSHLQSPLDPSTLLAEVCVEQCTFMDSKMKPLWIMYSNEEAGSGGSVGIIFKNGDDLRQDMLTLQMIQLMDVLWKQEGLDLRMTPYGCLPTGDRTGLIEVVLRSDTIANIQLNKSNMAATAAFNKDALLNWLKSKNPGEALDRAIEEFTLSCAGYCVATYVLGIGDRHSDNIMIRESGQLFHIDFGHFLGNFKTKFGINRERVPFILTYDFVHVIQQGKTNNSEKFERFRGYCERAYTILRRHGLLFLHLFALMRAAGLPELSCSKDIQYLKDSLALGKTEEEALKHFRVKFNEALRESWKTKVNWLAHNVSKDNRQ
ASSAY_PROCEDURE: PI3K delta kinase assay (Kinase-Glo luminescence)
Assay type: biochemical
RECORDED_METRIC: IC50 (µM)

CCOc1ncc(-c2ccc3ncc4c(c3c2)n(-c2cn(C)nc2C)c(=O)n4C)cn1 [Example 52] | 0.037
CCNc1cc(-c2ccc3ncc4c(c3c2)n(-c2c(C)nn(C)c2C)c(=O)n4C)cnc1F [Example 154.1] | 0.037
Cc1nn(C)cc1-n1c(=O)n(C)c2cnc3ccc(-c4cccc(S(=O)(=O)N5CCCC5)c4)cc3c21 [Example 44] | 0.028
Cc1nn(C)cc1-n1c(=O)n(C)c2cnc3ccc(-c4cccc(NS(C)(=O)=O)c4)cc3c21 [Example 47] | 0.178
CNc1ccc(-c2ccc3ncc4c(c3c2)n(-c2cn(C(C)C)nc2C)c(=O)n4C)cn1 [Example 118.1] | 0.018

(P) COc1ncc(-c2ccc3ncc4c(c3c2)n(-c2cn(C)nc2C)c(=O)n4C)cc1N(C)C(C)=O [Example 62]
(Q) Cc1ncc(-c2ccc3ncc4c(c3c2)n(-c2cn(C)nc2C)c(=O)n4C)cc1OC(C)C [Example 84.1]
(R) Cc1nn(C)cc1-n1c(=O)n(C)c2cnc3ccc(-c4cccc(N(C)S(C)(=O)=O)c4)cc3c21 [Example 117]
(S) CNC(=O)c1cc(-c2ccc3ncc4c(c3c2)n(-c2cn(C(C)C)nc2C)c(=O)n4C)cnc1N [Example 224.2]
Hey, quick one: sort these by IC50, largest value first please. Your answer should be the labels, listed in the requested order.
R, S, P, Q
(R: 0.147 µM, S: 0.041 µM, P: 0.016 µM, Q: 0.004 µM)

====

ASSAY_PROCEDURE: Solubility at pH 6.8
Format: physicochemical
CONDITION_DESCRIPTION: pH 6.8, aqueous buffer, thermodynamic from solid; read-out: solubility
Recorded solubility for the following molecules

Known results for molecules:
COCCOc1cncc(-c2ccc3ncc4c(c3c2)n(-c2cn(C)nc2C)c(=O)n4C)c1 | > 444 µg/mL
CCNc1cc(-c2ccc3ncc4c(c3c2)n(-c2c(C)nn(CCOC)c2C)c(=O)n4C)cnc1OC | > 502 µg/mL
COCc1ccc(-c2ccc3ncc4c(c3c2)n(-c2cn(C(C)C)nc2C)c(=O)n4C)cn1 | > 443 µg/mL
Cc1nn(C)cc1-n1c(=O)n(C)c2cnc3ccc(-c4cncc(CN)c4)cc3c21 | > 399 µg/mL

// moving on: another record for solubility
What does the record list as solubility for CCNc1cc(-c2ccc3ncc4c(c3c2)n(-c2cn(CC)nc2C)c(=O)n4C)cnc1COC ?
> 472 µg/mL

====

TARGET_OF_ASSAY: PI3K beta (Homo sapiens)
Construct: for the full-length p110-b subunit are generated and fused by overlapping PCR; p85(iSH2) fusion partner (see partner chain) (N); His tag (C); made in house; host or cells: baculovirus; Tn5 (Trichoplusia ni) or TiniPro insect cells
Sequence (P42338 with tags, fused parts or gaps limits assumed): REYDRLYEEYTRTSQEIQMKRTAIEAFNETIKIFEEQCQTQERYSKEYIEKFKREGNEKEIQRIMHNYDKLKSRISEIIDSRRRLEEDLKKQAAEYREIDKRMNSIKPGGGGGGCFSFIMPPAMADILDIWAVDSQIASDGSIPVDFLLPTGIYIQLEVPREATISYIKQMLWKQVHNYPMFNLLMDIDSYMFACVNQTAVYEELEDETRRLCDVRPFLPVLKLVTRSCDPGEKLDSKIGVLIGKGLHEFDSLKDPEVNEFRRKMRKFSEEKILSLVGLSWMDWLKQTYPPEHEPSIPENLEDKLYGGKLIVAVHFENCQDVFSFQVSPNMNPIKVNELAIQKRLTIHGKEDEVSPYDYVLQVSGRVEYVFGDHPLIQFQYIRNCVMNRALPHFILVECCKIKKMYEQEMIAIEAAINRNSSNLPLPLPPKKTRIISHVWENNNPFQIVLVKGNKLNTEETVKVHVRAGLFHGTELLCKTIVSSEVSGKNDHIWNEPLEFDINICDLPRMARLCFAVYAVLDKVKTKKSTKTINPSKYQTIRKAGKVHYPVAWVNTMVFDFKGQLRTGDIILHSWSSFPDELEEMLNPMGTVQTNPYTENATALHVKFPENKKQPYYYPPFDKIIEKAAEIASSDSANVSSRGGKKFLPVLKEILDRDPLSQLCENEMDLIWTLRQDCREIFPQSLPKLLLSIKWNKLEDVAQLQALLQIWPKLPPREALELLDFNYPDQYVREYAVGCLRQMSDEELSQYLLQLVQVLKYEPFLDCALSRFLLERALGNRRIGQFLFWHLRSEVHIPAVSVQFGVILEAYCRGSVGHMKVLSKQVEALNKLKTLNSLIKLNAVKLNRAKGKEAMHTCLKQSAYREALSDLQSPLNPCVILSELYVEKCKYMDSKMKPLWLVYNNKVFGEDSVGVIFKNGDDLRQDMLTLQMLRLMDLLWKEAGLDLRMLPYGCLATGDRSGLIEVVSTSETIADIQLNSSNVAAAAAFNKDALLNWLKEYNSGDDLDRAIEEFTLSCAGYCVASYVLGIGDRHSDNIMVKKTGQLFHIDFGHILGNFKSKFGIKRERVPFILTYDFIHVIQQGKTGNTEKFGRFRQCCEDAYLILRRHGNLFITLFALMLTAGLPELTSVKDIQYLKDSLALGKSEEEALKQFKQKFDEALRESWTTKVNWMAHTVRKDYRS
ASSAY_PROCEDURE: PI3K beta kinase assay (Kinase-Glo luminescence)
Type: biochemical
RECORDED_METRIC: IC50 (nM)

Check out these entries, answers already filled in.
COc1ncc(-c2ccc3ncc4c(c3c2)n(-c2cn(C(C)C)nc2C)c(=O)n4C)c(OC)n1 | 150
COCc1cncc(-c2ccc3ncc4c(c3c2)n(-c2cn(C)nc2C)c(=O)n4C)c1 | 28

(1) CCN(C)c1ccc(-c2ccc3ncc4c(c3c2)n(-c2cn(C)nc2C)c(=O)n4C)cn1
(2) CCNc1cc(-c2ccc3ncc4c(c3c2)n(-c2cn(C)nc2C)c(=O)n4C)cnc1CO
Which item exceeds the other in IC50, 1 or 2 ? // respond with label for picked entry
1
(1: 407 nM, 2: 19 nM)
